tested-on: GNAQ/GNA11 (Homo sapiens) (UniProt P50148+P29992)
assay-explanation: Inhibition of Galphaq/11 (unknown origin) expressed in CHO cells coexpressing M1 receptor assessed as reduction in carbachol-induced IP1 accumulation at 10 uM preincubated for 1 hr followed by carbachol stimulation and measured after 1 hr by HTRF assay relative to control
Format: cell-based
applied-conditions: time 2.0 hrs
inhibition of 30% or higher: TRUE. Under 30%: FALSE.

Example results:
NCCCC[C@H](N)C(=O)N1CCn2cc(-c3ccccc3)nc2[C@@H]1CC1CCCCC1 :: TRUE
C[C@@H](CS)C(=O)N1CCn2cc(-c3ccccc3)nc2[C@@H]1CC1CCCCC1 :: FALSE
N[C@@H](Cc1ccccc1)C(=O)N1CCn2cc(-c3ccccc3)nc2[C@@H]1CC1CCCCC1 :: FALSE
CC[C@@H](C)[C@H](N)C(=O)N1CCn2cc(-c3ccccc3)nc2[C@H]1CC(C)C :: FALSE
CC(C)[C@@H]1c2nc(-c3ccccc3)cn2CCN1C(=O)[C@@H](N)CCCCN :: FALSE

Threshold query (inhibition >= 30%) on N[C@@H](CS)C(=O)N1CCn2cc(-c3ccccc3)nc2[C@@H]1CC1CCCCC1 TRUE

Threshold query (inhibition >= 30%) on CC(C)C[C@@H]1c2nc(-c3ccccc3)cn2CCN1C(=O)[C@@H](N)CO FALSE

Threshold query (inhibition >= 30%) on CC(C)[C@H]1c2nc(-c3ccccc3)cn2CCN1C(=O)[C@@H](N)CS TRUE

----------
assay-explanation: Antiproliferative activity against human MP41 cells assessed as inhibition of cell growth after 72 hrs by CCK8 assay
Assay type: functional, cell-based
applied-conditions: MP41, 72 h
property-name: IC50

Reference set (2 entries):
CC[C@@H](C)[C@H](N)C(=O)N1CCn2cc(-c3ccccc3)nc2[C@@H]1C(C)C :: > 100 µM
CC[C@H](C)C(=O)N1CCn2cc(-c3ccccc3)nc2[C@H]1CC(C)C :: 85.8 µM

Name the reported IC50 value associated with the compound CN[C@@H](CS)C(=O)N1CCn2cc(-c3ccccc3)nc2[C@@H]1C(C)C > 100 µM

Name the reported IC50 value associated with the compound CSCC[C@H](N)C(=O)N1CCn2cc(-c3ccccc3)nc2[C@@H]1CC1CCCCC1 > 100 µM

Name the reported IC50 value associated with the compound CC(C)C[C@@H]1c2nc(-c3ccccc3)cn2CCN1C(=O)[C@@H](N)CO > 100 µM

Name the reported IC50 value associated with the compound NC(=O)CC[C@H](N)C(=O)N1CCn2cc(-c3ccccc3)nc2[C@@H]1CC1CCCCC1 > 100 µM

Name the reported IC50 value associated with the compound N[C@@H](CS)C(=O)N1CCn2cc(-c3ccccc3)nc2[C@@H]1CC1CCCCC1 2.3 µM

Name the reported IC50 value associated with the compound CC(C)[C@H]1c2nc(-c3ccccc3)cn2CCN1C(=O)[C@@H](N)Cc1ccc(O)cc1 > 100 µM

----------
tested-on: GNAQ/GNA11 (Homo sapiens) (UniProt P50148+P29992)
assay-explanation: Inhibition of Galphaq/11 (unknown origin) expressed in CHO cells coexpressing M1 receptor assessed as reduction in carbachol-induced IP1 accumulation at 10 uM preincubated for 1 hr followed by carbachol stimulation and measured after 1 hr by HTRF assay relative to control
Type: cell-based
applied-conditions: time 2.0 hrs
inhibition of 10% or higher: yes. Under 10%: no.

CC(C)[C@H]1c2nc(-c3ccccc3)cn2CCN1C(=O)[C@@H](N)CO :: no
CC(C)C[C@H]1c2nc(-c3ccccc3)cn2CCN1C(=O)[C@@H](N)CS :: yes
CC(C)[C@@H]1c2nc(-c3ccccc3)cn2CCN1C(=O)[C@@H](N)CS :: yes
O=C([C@@H]1CCCN1)N1CCn2cc(-c3ccccc3)nc2[C@@H]1CC1CCCCC1 :: yes
CC(C)C[C@@H]1c2nc(-c3ccccc3)cn2CCN1C(=O)C(C)C :: no
N[C@@H](CCC(=O)O)C(=O)N1CCn2cc(-c3ccccc3)nc2[C@@H]1CC1CCCCC1 :: yes

Note: attention shifts to another entry.
Threshold query (inhibition >= 10%) on CN[C@@H](CS)C(=O)N1CCn2cc(-c3ccccc3)nc2[C@@H]1CC1CCCCC1 yes

----------
assay-explanation: Antiproliferative activity against human MP41 cells assessed as inhibition of cell growth after 72 hrs by CCK8 assay
Format: functional, cell-based
applied-conditions: MP41, 72 h
pIC50: −log10 of the molar value.
Each record here notes measured pIC50.

Reference set (5 entries):
CC[C@@H](C)[C@H](N)C(=O)N1CCn2cc(-c3ccccc3)nc2[C@H]1C(C)C :: 4.01
CC(C)[C@@H]1c2nc(-c3ccccc3)cn2CCN1C(=O)[C@@H](N)CCCCN :: < 4.00
N[C@@H](CC(=O)O)C(=O)N1CCn2cc(-c3ccccc3)nc2[C@@H]1CC1CCCCC1 :: < 4.00
N=C(N)NCCC[C@H](N)C(=O)N1CCn2cc(-c3ccccc3)nc2[C@@H]1CC1CCCCC1 :: < 4.00
CN[C@@H](CS)C(=O)N1CCn2cc(-c3ccccc3)nc2[C@@H]1CC1CCCCC1 :: 4.56

Name the reported pIC50 value associated with the compound CC(C)[C@H]1c2nc(-c3ccccc3)cn2CCN1C(=O)[C@@H](N)CS < 4.00

----------
tested-on: GNAQ/GNA11 (Homo sapiens) (UniProt P50148+P29992)
assay-explanation: Inhibition of Galphaq/11 (unknown origin) expressed in CHO cells coexpressing M1 receptor assessed as reduction in carbachol-induced IP1 accumulation at 10 uM preincubated for 1 hr followed by carbachol stimulation and measured after 1 hr by HTRF assay relative to control
Assay type: cell-based
applied-conditions: time 2.0 hrs
property-name: inhibition (%)
Only the number, expressed in %, is required.

CN[C@@H](CS)C(=O)N1CCn2cc(-c3ccccc3)nc2[C@H]1C(C)C :: 30.5
CC[C@H](C)C(=O)N1CCn2cc(-c3ccccc3)nc2[C@H]1CC(C)C :: 1.1
CC(C)C[C@@H]1c2nc(-c3ccccc3)cn2CCN1C(=O)[C@@H](N)CS :: 50.4
C[C@@H]1c2nc(-c3ccccc3)cn2CCN1C(=O)[C@@H](N)CS :: 6
C[C@H](O)C(=O)N1CCn2cc(-c3ccccc3)nc2[C@@H]1CC1CCCCC1 :: 22.5
CC[C@H](C)C(=O)N1CCn2cc(-c3ccccc3)nc2[C@@H]1CC1CCCCC1 :: 47.1
CC[C@H](C)C(=O)N1CCn2cc(-c3ccccc3)nc2[C@@H]1C(C)C :: 12.9
O=C(CCS)N1CCn2cc(-c3ccccc3)nc2[C@@H]1CC1CCCCC1 :: 19.8

Name the reported inhibition value associated with the compound CC(C)[C@H]1c2nc(-c3ccccc3)cn2CCN1C(=O)[C@@H](N)CCCCN 5.3

Name the reported inhibition value associated with the compound CC(C)[C@@H]1c2nc(-c3ccccc3)cn2CCN1C(=O)[C@@H](N)CO 9.5

Name the reported inhibition value associated with the compound C[C@@H](O)[C@H](N)C(=O)N1CCn2cc(-c3ccccc3)nc2[C@@H]1CC1CCCCC1 10.7

Name the reported inhibition value associated with the compound CSCC[C@H](N)C(=O)N1CCn2cc(-c3ccccc3)nc2[C@@H]1CC1CCCCC1 12.4

Name the reported inhibition value associated with the compound N[C@@H](Cc1ccc(O)cc1)C(=O)N1CCn2cc(-c3ccccc3)nc2[C@@H]1CC1CCCCC1 34

src = ChEMBL document CHEMBL4808167
